Data provenance: ChEMBL document CHEMBL3734715

Measured pIC50 accompanies every entry in the list below.
Tested on: HepG2
Test: Cytotoxicity against human HepG2 cells after 72 hrs by SRB assay
Format: functional, cell-based
Conditions: HepG2, 72 h
Scale for pIC50: -log10 of concentration given in mol/L; no unit attached.

Before answering, review these 4 worked examples.
Cc1c2ccncc2c(C)c2c1[nH]c1ccccc12 : 5.68
CCC1=C[C@H]2CN(CCc3c([nH]c4ccccc34)[C@@](C(=O)OC)(c3cc4c(cc3OC)N(C)[C@H]3[C@@](O)(C(=O)OC)[C@H](OC(C)=O)[C@]5(CC)C=CCN6CC[C@]43[C@@H]65)C2)C1 : 5.34
CCC1=C[C@H]2CN(CCc3c([nH]c4ccccc34)[C@@](C(=O)OC)(c3c(OC)cc(N)cc3OC)C2)C1 : 4.69
CC[C@]1(O)C[C@@H]2C[C@](C(=O)OC)(c3cc4c(cc3OC)N(C=O)[C@H]3[C@@](O)(C(=O)OC)[C@H](OC(C)=O)[C@]5(CC)C=CCN6CC[C@]43[C@@H]65)c3[nH]c4ccccc4c3CC[N@+](CC(=O)/C=C/c3ccc(Cl)cc3)(C2)C1 : 4.85

Turning now to a further record.
Given the entry CC[C@]1(O)C[C@@H]2C[C@](C(=O)OC)(c3cc4c(cc3OC)N(C=O)[C@H]3[C@@](O)(C(=O)OC)[C@H](OC(C)=O)[C@]5(CC)C=CCN6CC[C@]43[C@@H]65)c3[nH]c4ccccc4c3CC[N@+](CC(=O)/C=C/c3ccc(O)c(OC)c3)(C2)C1 , report its measured pIC50. 5.61
